# System: SNB-19 CNS
# protocol.text: NCI tumour cell line growth inhibition, 48 h
assay.metric: TGI

Consider the worked cases shown below.
>  <compound>
CCN(CC)/C(SCc1ccccc1)=C(\C(Cl)=C(Cl)Cl)[N+](=O)[O-]

>  <TGI>
97.5 µM

$$$$
>  <compound>
CCCCC(C(=O)NCCNC(=O)CCC(=O)N(C)O)C(=O)NCCNC(=O)CCC(=O)N(C)O

>  <TGI>
> 100 µM

$$$$

-- ask So what's the measured TGI for this one? "O=C(Nc1nccs1)c1c(O)nc2sccn2c1=O"
-- reply > 10 µM

-- ask So what's the measured TGI for this one? O=c1c2sccc2n(CC2COc3ccccc3O2)c(=O)n1O (stereo not given)
-- reply > 100 µM

-- ask So what's the measured TGI for this one? O=c1[nH]c(=O)n(C2OC(CO)C(O)C2O)c2nc(-c3ccc(-c4ccccc4)cc3)cnc12 (stereo not given)
-- reply > 100 µM
